Would you mind telling me the reported MIC of each entry?
# System: Pseudomonas aeruginosa PAE19-3
# Assay type: cell-based
# measurement context: PAE19-3
Bridge positions count the residues as written; N and C are the ends. Square brackets hold non-standard residues; d marks the D form. Peptide text beside a SMILES is read from it. * marks the point of attachment. Heptanoyl(6-Me) = CC(C)CCCCC(=O)*; Sulfomethyl = O=S(=O)(O)C*; Heptanoyl = CCCCCCC(=O)*; Octanoyl = CCCCCCCC(=O)*; dDap = NC[C@@H](N)C(=O)O; Dab = NCC[C@H](N)C(=O)O
# output: number + unit

Worked cases, answers included:
{"columns": ["compound", "tested target", "MIC"],
 "data": [
  ["CCCCCCC(=O)N[C@@H](CCN)C(=O)N[C@H](C(=O)N[C@@H](CCN)C(=O)N[C@H]1CCNC(=O)[C@H]([C@@H](C)O)NC(=O)[C@H](CCN)NC(=O)[C@H](CCN)NC(=O)[C@H]([C@@H](C)O)NC(=O)[C@@H](Cc2ccccc2)NC(=O)[C@H](CCN)NC1=O)[C@@H](C)O [Compound 19] (Heptanoyl-[Dab]T[Dab][Dab][Dab][dF]T[Dab][Dab]T; lactam 4-C)", "Pseudomonas aeruginosa PAE19-3", "2 µg/mL"],
  ["CC(C)CCCCC(=O)N[C@@H](CCN)C(=O)N[C@H](C(=O)N[C@H](COCS(=O)(=O)O)C(=O)N[C@H]1CCNC(=O)[C@H]([C@@H](C)O)NC(=O)[C@H](CCN)NC(=O)[C@H](CCN)NC(=O)[C@H]([C@@H](C)O)NC(=O)[C@@H](Cc2ccccc2)NC(=O)[C@H](CCN)NC1=O)[C@@H](C)O [Compound 103] ({Heptanoyl(6-Me)}-[Dab]T[dS](Sulfomethyl)[Dab][Dab][dF]T[Dab][Dab]T; lactam 4-C)", "Pseudomonas aeruginosa PAE19-3", "0.25 µg/mL"]
]}

The value of MIC measured for the compound CCCCCCCC(=O)N[C@@H](CCN)C(=O)N[C@H](C(=O)N[C@H](CN)C(=O)N[C@H]1CCNC(=O)[C@H]([C@@H](C)O)NC(=O)[C@H](CCN)NC(=O)[C@H](CCN)NC(=O)[C@H]([C@@H](C)O)NC(=O)[C@@H](Cc2ccccc2)NC(=O)[C@H](CCN)NC1=O)[C@@H](C)O [Compound 3] (Octanoyl-[Dab]T[dDap][Dab][Dab][dF]T[Dab][Dab]T; lactam 4-C) turned out to be 0.25 µg/mL
